# TARGET_OF_ASSAY: T1, human LIV-1 (human, UniProt Q13433 29-755); also: test concentration or dose not given here
# T1 sequence (looked up): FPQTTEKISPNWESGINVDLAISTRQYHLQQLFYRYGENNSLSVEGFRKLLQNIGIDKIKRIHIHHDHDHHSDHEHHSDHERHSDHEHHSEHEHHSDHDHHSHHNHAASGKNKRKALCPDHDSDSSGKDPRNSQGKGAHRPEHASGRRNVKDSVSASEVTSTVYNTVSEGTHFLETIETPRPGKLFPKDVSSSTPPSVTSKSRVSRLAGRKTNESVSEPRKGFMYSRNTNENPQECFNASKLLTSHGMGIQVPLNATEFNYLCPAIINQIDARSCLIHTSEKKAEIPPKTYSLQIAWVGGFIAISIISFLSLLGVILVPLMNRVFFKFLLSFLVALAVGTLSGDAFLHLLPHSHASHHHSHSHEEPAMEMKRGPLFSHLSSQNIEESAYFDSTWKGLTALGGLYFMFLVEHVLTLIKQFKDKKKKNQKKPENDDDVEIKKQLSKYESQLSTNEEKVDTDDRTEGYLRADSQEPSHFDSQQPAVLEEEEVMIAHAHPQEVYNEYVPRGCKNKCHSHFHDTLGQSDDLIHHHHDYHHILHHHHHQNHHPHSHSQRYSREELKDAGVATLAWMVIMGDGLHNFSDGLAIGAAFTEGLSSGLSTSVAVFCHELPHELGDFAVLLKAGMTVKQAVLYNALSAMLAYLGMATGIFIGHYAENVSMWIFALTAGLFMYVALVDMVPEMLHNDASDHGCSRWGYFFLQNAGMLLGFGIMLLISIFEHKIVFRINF
# TEST_PROTOCOL: cell-based or functional assay
ASSAY_METRIC: Cell viability(%)
Give bare numbers, in %.

Some entries whose results are on file:
293F10B6 (antibody, V domains shown, Tested as chimeric antibody) VH: QVTLKESGPGMLQPSQTLNLTCSFSGFSLNTSGMGVSWIRQPSGKGLEWLAHIFWDDDKRYNPSLKSRLTISKDVSSNQVFLKITSVDTADTATYFCARRARNNYPWFPYWGQGTLVTVSA VL: DIVLTQSPASLAVSLGQRATISCKASQSVDYDGDSYMNWYQQKPGQPPKLLIYAASNLDSGIPARFSGSGSGTDFTLNIHPMEDEDVATYYCQQSNGAPFTFGGGTKLEIK: 3.41
39D10B2 (antibody, V domains shown, Tested as chimeric antibody) VH: QVQLKQSGPGLVQPSQSLSITCTVSGFSLTTYGVHWVRQSPGKGLEWLGVIWTGGTTDYNAAFISRLSISKDNSKSQVFFKMNSLQANDTAMYYCARGPSSYWGQGTLVTVSA VL: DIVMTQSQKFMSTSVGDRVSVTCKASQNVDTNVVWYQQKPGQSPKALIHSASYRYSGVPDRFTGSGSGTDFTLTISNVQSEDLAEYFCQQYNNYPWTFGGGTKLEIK: 16.2

Param item = 135C6E7 (antibody, V domains shown, Tested as chimeric antibody) VH: EVQLVESGGGLVQPKGSLKLSCAASGFTFNTYAMNWVRQAPGKGLEWVARIRSKYNSYATYYADSVKDRFTISRDDSQSILYLQMNNLKTEDTAMYYCVRHEDYDGGFAYWGQGTLVTVSA VL: DIVMSQSPSSLAVSVGEKVTMSCKSSQSLFKSRTRKNYLAWYQQKPGQSPKLLIYWASTRESGVPDRFTGSGSGTDFTLTISSVQAEDLAVYYCKESYNLMYTFGGGTKLEIK ; retrieve measured Cell viability(%).
17.6
